Test system: NCI-H226 lung
Procedure Summary: NCI tumour cell line growth inhibition, 48 h
Some compounds, each annotated with its measured TGI.
Parameter Measured: TGI

cpd_smiles=COc1ccc(C(c2c(O)c3ccccc3n(-c3ccccc3)c2=O)c2c(O)c3ccccc3n(-c3ccccc3)c2=O)cc1 value="> 100 µM"
cpd_smiles=CC[C@H](Nc1ncnc2nc[nH]c12)c1nc2cccc(F)c2c(=O)n1-c1ccccc1 value="> 100 µM"
cpd_smiles=O=c1/c(=C/c2ccccc2[N+](=O)[O-])sc2nc3ccccc3n12 value="> 46.4 µM"
cpd_smiles=COc1ccc(-n2[nH]nc(C(N)=O)c2=O)cc1 value="> 100 µM"

---

Entries and their TGI values follow.
Tested on: DU-145 prostate
Procedure Summary: NCI tumour cell line growth inhibition, 48 h
Parameter Measured: TGI

compound=O=C(/C=C/c1ccc(-c2ccccc2)cc1)NCc1ccc(C(=O)NCc2ccccc2)cc1 value="> 100 µM"
compound="O=C(O)CCC(=O)c1ccc2c(c1)C(C(=O)O)CC2 (centres undefined)" value="> 100 µM"
compound=NS(=O)(=O)c1ccc(-n2nc3c(c2-c2ccc(Cl)cc2)Cc2ccccc2-3)cc1 value="33 µM"
compound="Cc1ccc(SC2C(=O)C3CC(OCc4ccccc4)C2(C)C3(C)C)cc1 (centres undefined)" value="> 100 µM"
compound=O=[N+]([O-])c1cc(Cl)c2[nH]c3c(Cl)cc([N+](=O)[O-])cc3c2c1 value="> 100 µM"
compound=CCOC(=O)c1c(N=P(c2ccccc2)(c2ccccc2)c2ccccc2)nnc(-c2ccccc2)c1-c1ccccc1 value="> 100 µM"
compound="O=C(/C=C/C12c3ccccc3C(c3ccccc31)C1C(=O)NC(=O)C12)c1ccc(Cl)cc1Cl (centres undefined)" value="3.43 µM"
compound="O=C(O)C(O)C(O)C(=O)O (centres undefined)" value="> 100 µM"
compound=O=C(NOC[C@H](O)CO)c1ccc(F)c(F)c1Nc1ccc(I)cc1F value="> 100 µM"

---

Tested on: LOX IMVI melanoma
Procedure Summary: NCI tumour cell line growth inhibition, 48 h
TGI: recorded values
Parameter Measured: TGI (µM)

molecule=CCOc1ccc2[nH]c3c(C)c4ccncc4c(C)c3c2c1 inequality_sign== value=2.49
molecule="O=C1CC2C(=O)c3ccccc3CC2c2ccccc21 (stereo not given)" inequality_sign=> value=100
molecule=CSc1ccc(-c2cc(-c3nc4ccccc4[nH]3)no2)cc1 inequality_sign== value=80.1
molecule=O=c1c2cc(F)ccc2sc2c(N3CCNCC3)nc3ccc(F)cc3c12 inequality_sign== value=3.16
molecule=COc1cc2ncn(-c3cc(OCc4ccccc4C(F)(F)F)c(C(=O)N(C)C)s3)c2cc1OC inequality_sign=> value=25
molecule=COc1cc2c(cc1OC)C(=O)N(c1ccc(O)cc1)C2=O inequality_sign=> value=100
molecule="CCC1(N=[N+]=[N-])C(=O)c2ccccc2N(C)C1=O (stereo not given)" inequality_sign=> value=100
molecule="Cc1nc(N)nc2c1CCC(O)S2 (stereo not given)" inequality_sign== value=24.5
molecule="COc1ccc(C2OC(=O)c3ccc4ccccc4c32)c(C)c1 (stereo not given)" inequality_sign=> value=100
molecule=CO/N=C(/C)c1cccc(Nc2nc3ccccc3c3[nH]c4ccccc4c23)c1 inequality_sign== value=25
molecule=COc1ccc(N=NC(C(=O)c2ccccc2)C(=O)c2ccccc2)cc1 inequality_sign== value=47
molecule=O=C(O)c1ccc(NCn2nc(-c3ccccc3O)oc2=S)cc1 inequality_sign== value=38.3
molecule=Cn1c(-c2c(N)n(Nc3cccc(Cl)c3)c3nc(C#N)c(C#N)nc23)nc2ccccc21 inequality_sign== value=11.5
molecule="O=C1c2cc(Cl)ccc2NC(=NC2CCCC2)C2CSCN12 (stereo not given)" inequality_sign=> value=100
molecule="COC(=O)C1C(O)CCC2CN3CCc4c([nH]c5ccccc45)C3CC21 (stereo not given)" inequality_sign=> value=100

All figures here come from PubChem BioAssay (NCI).
